# Assay target: Aldehyde dehydrogenase, mitochondrial (Homo sapiens)
# Procedure summary: qHTS for Inhibitors of the Aldehyde Dehydrogenase Family (ALDH2) Primary screen (AID 2061308); also: nearly all actives have a fitted effect of over 55% in size
# Experimental conditions: ALDH2 enzyme inhibition qHTS, 1536-well; series mostly up to 56 µM
Records with an inconclusive call do not appear. The source made the active and inactive calls. Calls follow the shape of the dose curve; as a rule, active = well fitted inhibition curve with a large enough effect; inconclusive = small, poorly fitted or top-dose-only effect; inactive = flat fitted curve, though single readings scatter.
Readout kind: outcome

{"Compound": "Cc1c(P(=S)(c2ccccc2)c2ccccc2)c2ccccc2n1C(=O)NCc1ccccc1", "Result": "inactive"}
{"Compound": "CC(C)(N)C(=O)Nc1ccc(Cl)cc1C(=O)c1ccc[nH]1", "Result": "inactive"}
{"Compound": "COc1ccc(-c2nc3ccccc3c(=O)n2Cc2ccccc2)cc1COc1ccc(NC(C)=O)cc1", "Result": "inactive"}
{"Compound": "Cc1cc2c(s1)c1cnn(Cc3ccc(C(F)(F)F)cc3)c(=O)c1n2C", "Result": "inactive"}

Below are some compounds; for each one, tell me its outcome.
1. CC(C)c1ccccc1-c1ncc(F)c(NCc2ccc(-c3cccnc3)s2)n1
2. Cc1[nH]cnc1C[C@H]1CCc2c(C)c3ccccc3n2C1=O
3. COc1ccc(C(=O)OC2C3C=COC(OC4OC(CO)C(O)C(O)C4O)C3C3(CO)OC23)cc1OC (stereo unspecified)
4. CN(C)c1ccc(-c2nc3ccccc3s2)cc1
5. Cc1ccccc1NC(=O)CN1C(=O)N/C(=C\c2cccn2-c2cccc(C(=O)O)c2)C1=O
6. Cc1nc(N2CCOCC2)c2nc(-c3ccccc3)n(CCCN(C)C)c2n1
7. Cc1ccc(C)c(SC2CS(=O)(=O)c3ccccc32)c1 (stereo unspecified)
8. Cc1c(P(=S)(c2ccccc2)c2ccccc2)c2ccccc2n1C(=O)NCc1ccc(F)cc1

Result string:
inactive
inactive
inactive
inactive
inactive
inactive
inactive
inactive

Below are some compounds; for each one, tell me its outcome.
1. O=C(Nc1ccc(F)c(C(F)(F)F)c1)Nc1nnc(-c2cccnc2)s1
2. Cc1cccc(-n2cnc3cc(C(=O)N4CCCCC4)ccc32)c1
3. FC(F)(F)c1ccccc1-c1nc(NCc2ccc(Cl)c(Cl)c2)c2ccccc2n1
4. COc1nccc(-c2nc(Nc3ccc(F)c(F)c3)c3ccccc3n2)c1Cl
5. Cc1cc(N[S+](=O)([O-])c2ccc(NC(=O)Cn3c(=O)oc4ccc(Cl)cc43)cc2)no1
6. FC(F)(F)c1cccc(N2CCN(C(=S)Nc3nccc4ccccc34)CC2)c1
7. Cc1ccc(NS(=O)(=O)c2cc3c(cc2C)OCC(=O)N3)cc1C
8. O=c1[nH]cnc2c1ncn2[C@H]1CC[C@@H](CO)O1

Result string:
inactive
inactive
inactive
inactive
inactive
inactive
inactive
inactive

Query string: Suppose we examine the compound CC(O)(C(=O)C1CC1(CO)COC1OC(CO)C(O)C(O)C1O)C1C(O)CC2C3CC=C4CC(O)CC(O)C4(C)C3C(O)CC21C (stereo unspecified) ; what outcome value has been reported?
Result string: inactive

###

# Procedure summary: BET inhibitor-based combinations targeting novel dependencies in MECOM-rearranged (r) AML: SET-2 cell line (AID 2202231); also: potency is read from the fitted curve at half-maximal effect; nearly all actives have a fitted effect of over 35% in size
# Experimental conditions: SET-2 AML cells viability, CellTiter-Glo luminescence, 48 h
Results filed as inconclusive are left out. The source made the active and inactive calls. Calls follow the shape of the dose curve; as a rule, active = well fitted inhibition curve with a large enough effect; inconclusive = small, poorly fitted or top-dose-only effect; inactive = no such curve, though single readings can be large or run the other way.
Readout kind: Potency

Below are some compounds; for each one, tell me its Potency.
1. N#Cc1cc2cc(CN3CCC(Nc4ncnc5sc(CC(F)(F)F)cc45)CC3)c(O)cc2n1Cc1cn[nH]c1
2. C[C@H](NC(=O)/C(C#N)=C/c1cccc(Br)n1)c1ccccc1
3. C=CC(=O)Nc1cccc(Oc2nc(Nc3ccc(N4CCN(C)CC4)cc3)nc3ccsc23)c1
4. CC(=O)Nc1cc(Oc2ccc3c(nc(Nc4ccc(F)cc4F)n3C)c2C)ccn1
5. Cc1cc(-c2nc3cc(F)ccc3s2)ccc1NC(=O)[C@@H](N)CCCCN

Result string:
23.5 µM (active)
7.42 µM (active)
26.3 µM (active)
0.209 µM (active)
13.2 µM (active)
